system: Escherichia coli TOP10; test: shrunken log2 fold change of peptide-encoding DNA abundance (4.5 h post-induction vs induction); higher = less antimicrobial activity (less host growth inhibition); settings: time post-induction: 4.5 h; library: site-saturation at positions 5, 18, 19, 20
Please note: y applies when shrunken log2 fold change is -0.2 or greater, and n applies otherwise.

{"residueCodes": "RRIRKRPPRLPRPRPRPVDNPRP", "qualitativeLabel": "y"}
{"residueCodes": "RRIRYRPPRLPRPRPRPDFGPRP", "qualitativeLabel": "n"}
{"residueCodes": "RRIRPRPPRLPRPRPRPTQRPRP", "qualitativeLabel": "y"}

Exercise: Does the reported shrunken log2 fold change for `RRIRGRPPRLPRPRPRPTLYPRP` fall at or above the -0.2 mark?
Solution: y

Exercise: Does the reported shrunken log2 fold change for `RRIRSRPPRLPRPRPRPTLGPRP` fall at or above the -0.2 mark?
Solution: y

Exercise: Does the reported shrunken log2 fold change for `RRIRLRPPRLPRPRPRPHPCPRP` fall at or above the -0.2 mark?
Solution: y

Exercise: Does the reported shrunken log2 fold change for `RRIRRRPPRLPRPRPRPTPSPRP` fall at or above the -0.2 mark?
Solution: y

Exercise: Does the reported shrunken log2 fold change for `RRIRQRPPRLPRPRPRPWNRPRP` fall at or above the -0.2 mark?
Solution: y

---

// shrunken log2 fold change lookup, one value per entry
test system: Escherichia coli TOP10; experiment: shrunken log2 fold change of peptide-encoding DNA abundance (4.5 h post-induction vs induction); higher = less antimicrobial activity (less host growth inhibition); conditions: time post-induction: 4.5 h; library: site-saturation at positions 5, 18, 19, 20
Just the number, please, no unit after it.

Please review the entries below; each comes with its answer.
{"residueCodes": "RRIRLRPPRLPRPRPRPEDQPRP", "shrunken log2 fold change": 0.22}
{"residueCodes": "RRIRARPPRLPRPRPRPIINPRP", "shrunken log2 fold change": -0.174}
{"residueCodes": "RRIRQRPPRLPRPRPRPTAAPRP", "shrunken log2 fold change": 0.933}
{"residueCodes": "RRIRTRPPRLPRPRPRPVTMPRP", "shrunken log2 fold change": -0.289}

The sequence `RRIRMRPPRLPRPRPRPRSRPRP` showed shrunken log2 fold change equal to 0.997

---

system: Escherichia coli TOP10; test: shrunken log2 fold change of peptide-encoding DNA abundance (4.5 h post-induction vs induction); higher = less antimicrobial activity (less host growth inhibition); conditions: time post-induction: 4.5 h; library: site-saturation at positions 5, 18, 19, 20;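 further: peptides expressed intracellularly from a pBAD plasmid library in pooled LB shake-flask culture, induced with 0.3% L-arabinose, DNA abundance read by NGS, three biological replicates, DESeq2 with apeglm shrinkage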
Please note: t applies when shrunken log2 fold change is -0.04 or greater, and f applies otherwise.

See these solved cases before continuing.
{"residueCodes": "RRIRQRPPRLPRPRPRPKFVPRP", "systemUnderTest": "Escherichia coli TOP10", "qualitativeLabel": "f"}
{"residueCodes": "RRIRYRPPRLPRPRPRPKFIPRP", "systemUnderTest": "Escherichia coli TOP10", "qualitativeLabel": "f"}
{"residueCodes": "RRIRVRPPRLPRPRPRPMMIPRP", "systemUnderTest": "Escherichia coli TOP10", "qualitativeLabel": "f"}
{"residueCodes": "RRIRGRPPRLPRPRPRPMCDPRP", "systemUnderTest": "Escherichia coli TOP10", "qualitativeLabel": "t"}
{"residueCodes": "RRIRGRPPRLPRPRPRPIPRPRP", "systemUnderTest": "Escherichia coli TOP10", "qualitativeLabel": "t"}
{"residueCodes": "RRIRHRPPRLPRPRPRPRISPRP", "systemUnderTest": "Escherichia coli TOP10", "qualitativeLabel": "t"}

Exercise: Does the reported shrunken log2 fold change for `RRIRMRPPRLPRPRPRPPMYPRP` fall at or above the -0.04 mark?
Solution: f

Exercise: Does the reported shrunken log2 fold change for `RRIRPRPPRLPRPRPRPFFPPRP` fall at or above the -0.04 mark?
Solution: f
